// provenance: patent US7285572B2

Measured IC50, listed per entry.
assay target: human calcium receptor (Homo sapiens, UniProt P41180)
Construct: expressed in transfected cells; host or cells: cell strain derived from rat adrenal, co-transfected with luciferase cDNA
Sequence (P41180 20-1078): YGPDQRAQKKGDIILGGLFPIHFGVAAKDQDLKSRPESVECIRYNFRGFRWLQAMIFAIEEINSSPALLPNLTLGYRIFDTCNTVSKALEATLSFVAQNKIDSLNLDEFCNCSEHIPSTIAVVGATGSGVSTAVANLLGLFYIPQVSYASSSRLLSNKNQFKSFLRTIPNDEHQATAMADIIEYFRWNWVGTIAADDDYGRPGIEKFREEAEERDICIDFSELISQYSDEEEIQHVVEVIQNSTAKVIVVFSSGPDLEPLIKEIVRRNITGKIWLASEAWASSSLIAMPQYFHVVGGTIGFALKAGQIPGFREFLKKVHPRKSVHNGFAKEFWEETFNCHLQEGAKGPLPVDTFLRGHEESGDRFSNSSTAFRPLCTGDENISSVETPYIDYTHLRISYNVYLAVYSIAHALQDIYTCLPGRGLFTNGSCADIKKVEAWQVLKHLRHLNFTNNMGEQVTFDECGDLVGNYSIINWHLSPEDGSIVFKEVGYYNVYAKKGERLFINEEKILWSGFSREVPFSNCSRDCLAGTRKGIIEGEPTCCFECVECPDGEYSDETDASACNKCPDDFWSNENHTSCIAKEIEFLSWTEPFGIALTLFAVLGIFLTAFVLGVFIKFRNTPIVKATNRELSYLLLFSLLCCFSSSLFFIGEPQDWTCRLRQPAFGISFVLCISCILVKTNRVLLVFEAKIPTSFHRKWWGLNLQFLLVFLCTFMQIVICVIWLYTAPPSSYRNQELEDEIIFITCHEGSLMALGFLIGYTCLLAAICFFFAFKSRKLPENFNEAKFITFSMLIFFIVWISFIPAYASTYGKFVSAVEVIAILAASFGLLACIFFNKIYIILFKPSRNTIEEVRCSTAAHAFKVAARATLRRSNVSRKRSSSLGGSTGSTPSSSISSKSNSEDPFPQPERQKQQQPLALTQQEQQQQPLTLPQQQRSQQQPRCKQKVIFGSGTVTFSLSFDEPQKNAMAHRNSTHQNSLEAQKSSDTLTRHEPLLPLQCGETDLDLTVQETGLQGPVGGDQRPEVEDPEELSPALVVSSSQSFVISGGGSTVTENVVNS
assay name: Evaluation of antagonistic action on calcium receptor using reporter gene (luciferase)
Type: cell-based
experimental context: rat adrenal derived cells with luciferase and human calcium receptor cDNA, 5 mM calcium chloride, 4 hrs; read-out: IC50 (concentration showing 50% inhibitory rate of luciferase activity)
Method: Evaluation of Antagonistic Action on Calcium Receptor Using Reporter Gene Luciferase cDNA and human calcium receptor cDNA were introduced into a cell strain derived from rat adrenal to transform the cells, and the transformed cells were cultured in a medium (80 μl, F12 medium containing 0.5% dialyzed horse serum and 0.25% dialyzed bovine fetal serum). […] After culture for 4 hrs, luciferase substrate was added and the luciferase activity was measured with a photoluminometer. […]
Put down the number, then write its unit next to it.

// known answers, use as guide
[
  {
    "compound": "C[C@@H](OC[C@H](O)CNC(C)(C)Cc1ccc2ccccc2c1)c1ccccc1/C=C/C(=O)O",
    "IC50": "16 nM"
  },
  {
    "compound": "CCOP(=O)(O)c1ccc(-c2ccccc2C(C)OC[C@H](O)CNC(C)(C)Cc2ccc3ccccc3c2)cc1 (stereo partly drawn)",
    "IC50": "15 nM"
  },
  {
    "compound": "C[C@@H](OC[C@H](O)CNC(C)(C)Cc1ccc2ccccc2c1)c1ccccc1OCCCC(=O)O",
    "IC50": "246 nM"
  },
  {
    "compound": "CC(=O)NCc1ccc(-c2ccccc2[C@@H](C)OC[C@H](O)CNC(C)(C)Cc2ccc3ccccc3c2)cc1",
    "IC50": "24 nM"
  },
  {
    "compound": "CC(OC[C@H](O)CNC(C)(C)Cc1ccc2ccccc2c1)c1ccccc1-c1ccc(CC(N)=O)cc1 (stereo partly drawn)",
    "IC50": "145 nM"
  },
  {
    "compound": "CC(OC[C@H](O)CNC(C)(C)Cc1ccc2ccccc2c1)c1ccccc1C#CC(=O)O (stereo partly drawn)",
    "IC50": "23 nM"
  },
  {
    "compound": "CC(C)(Cc1ccc2ccccc2c1)NC[C@@H](O)COC(C1CC1)C1CC1",
    "IC50": "23 nM"
  },
  {
    "compound": "C[C@@H](OC[C@H](O)CNC(C)(C)Cc1ccc2ccccc2c1)c1ccccc1-c1ccc(C(=O)NO)cc1",
    "IC50": "104 nM"
  }
]

## Input Name the recorded IC50 for Cc1ccccc1[C@H](OC[C@@H](CNC(C)(C)Cc1ccc2ccccc2c1)OC(=O)/C=C\C(=O)O)C1CC1 .
## Output 79 nM

## Input What does the record list as IC50 for C[C@@H](OC[C@H](O)CNC(C)(C)Cc1ccc2ccccc2c1)c1ccccc1-c1ccc([N+](=O)[O-])cc1 ?
## Output 254 nM
